# assay.details: Selectivity index, ratio of IC50 for human THP1 cells to IC50 for chloroquine-sensitive Plasmodium falciparum 3D7
# Format: toxicity, cell-based, THP-1
# protocol.conditions: read-out: Ratio IC50

[
  {
    "molecule": "CCOC(=O)c1cn(Cc2ccc(F)cc2)c2ccc3nc(-c4ccccc4)c(-c4ccccc4)nc3c2c1=O",
    "selectivity ratio": 28.8
  },
  {
    "molecule": "O=C(O)c1cn(C2CC2)c2cc(N3CCNCC3)c(F)cc2c1=O [CIPROFLOXACIN]",
    "selectivity ratio": 2.61
  },
  {
    "molecule": "CCOC(=O)c1cn(Cc2ccc(F)cc2)c2ccc3nc(-c4ccc(F)cc4)c(-c4ccc(F)cc4)nc3c2c1=O",
    "selectivity ratio": 18.4
  },
  {
    "molecule": "CCOC(=O)c1cn(CC(F)(F)F)c2ccc3nc(-c4ccc(F)cc4)c(-c4ccc(F)cc4)nc3c2c1=O",
    "selectivity ratio": 70.2
  }
]

---

Ratio IC50: recorded values
# Tested on: Plasmodium falciparum
# assay.details: Potency index, ratio of ciprofloxacin IC50 to compound IC50 for chloroquine-sensitive Plasmodium falciparum 3D7 infected in human erythrocytes
# Assay type: functional

[
  {
    "structure.string": "CCOC(=O)c1cn(CC(F)(F)F)c2ccc3nc(-c4ccccc4)c(-c4ccccc4)nc3c2c1=O",
    "Ratio IC50": 2
  },
  {
    "structure.string": "CCOC(=O)c1cn(Cc2ccc(F)cc2)c2ccc3nc(-c4ccccc4)c(-c4ccccc4)nc3c2c1=O",
    "Ratio IC50": 3.3
  },
  {
    "structure.string": "CCCCn1cc(C(=O)OCC)c(=O)c2c3nc(-c4ccc(F)cc4)c(-c4ccc(F)cc4)nc3ccc21",
    "Ratio IC50": 2
  },
  {
    "structure.string": "CCOC(=O)c1cn(CC)c2ccc3nc(-c4ccccc4)c(-c4ccccc4)nc3c2c1=O",
    "Ratio IC50": 2
  },
  {
    "structure.string": "CCOC(=O)c1cn(Cc2ccc(F)cc2)c2ccc3nc(-c4ccc(F)cc4)c(-c4ccc(F)cc4)nc3c2c1=O",
    "Ratio IC50": 2
  },
  {
    "structure.string": "C#CCn1cc(C(=O)OCC)c(=O)c2c3nc(-c4ccc(F)cc4)c(-c4ccc(F)cc4)nc3ccc21",
    "Ratio IC50": 2
  },
  {
    "structure.string": "CCOC(=O)c1cn(CC(F)(F)F)c2ccc3nc(-c4ccc(F)cc4)c(-c4ccc(F)cc4)nc3c2c1=O",
    "Ratio IC50": 5
  },
  {
    "structure.string": "C#CCn1cc(C(=O)OCC)c(=O)c2c3nc(-c4ccccc4)c(-c4ccccc4)nc3ccc21",
    "Ratio IC50": 2
  },
  {
    "structure.string": "CCOC(=O)c1cn(Cc2ccc(C(F)(F)F)cc2)c2ccc3nc(-c4ccc(F)cc4)c(-c4ccc(F)cc4)nc3c2c1=O",
    "Ratio IC50": 2
  },
  {
    "structure.string": "CCCCn1cc(C(=O)OCC)c(=O)c2c3nc(-c4ccccc4)c(-c4ccccc4)nc3ccc21",
    "Ratio IC50": 2
  },
  {
    "structure.string": "CCOC(=O)c1cn(Cc2ccc(C(F)(F)F)cc2)c2ccc3nc(-c4ccccc4)c(-c4ccccc4)nc3c2c1=O",
    "Ratio IC50": 2
  },
  {
    "structure.string": "CCOC(=O)c1cn(CC)c2ccc3nc(-c4ccc(F)cc4)c(-c4ccc(F)cc4)nc3c2c1=O",
    "Ratio IC50": 2
  }
]

Sourced from ChEMBL document CHEMBL3232776
